Measured target: T1, hDicer PPC cassette (Homo sapiens, UniProt Q9UPY3 753-1068)
T1 sequence: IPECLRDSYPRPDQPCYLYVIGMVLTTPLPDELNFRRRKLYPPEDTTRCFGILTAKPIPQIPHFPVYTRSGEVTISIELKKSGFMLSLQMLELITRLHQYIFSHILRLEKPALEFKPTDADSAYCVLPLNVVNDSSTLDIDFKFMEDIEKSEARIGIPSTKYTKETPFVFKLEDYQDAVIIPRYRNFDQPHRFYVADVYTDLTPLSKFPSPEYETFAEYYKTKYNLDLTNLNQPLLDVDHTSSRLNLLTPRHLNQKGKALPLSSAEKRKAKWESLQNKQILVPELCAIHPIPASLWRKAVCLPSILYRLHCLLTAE
Protocol text: EMSA; EMSA: 20 mM Tris-HCl pH 7.4, 100 mM KCl, 30 min on ice; 5% or 10% native PAGE at 4 C in 1x TBE; G-rich oligos folded in 50 mM KCl
Reported conditions: protein: recombinant; tags: N-terminal 6xHis (pMCSG7); label: 5'-32P; hairpin
Recorded endpoint: Kd

Binder: pre-mir-21 (structured_RNA) RNA: AGCUUAUCAGACUGAUGUUGACUGUUGAAUCUCAUGGCAACACCAGUCGAUGGGCUGU
Readout value: ~0.205 µM
